Listed here are compounds together with their documented IC50.
System: CWR22RV1 cells
assayName: Compound in combination with androgen receptor inhibitor HC-1119, proliferation of CWR22RV1 cells (CCK-8)
Format: cell-based, human
conditionsUsed: Homo sapiens, CWR22Rv1, 144 h, in combination with 10 μM HC-1119, CWR22RV1 cells, 6 days; read-out: IC50 for inhibition on the activity of CWR22RV1
State the answer as a number, implicitly in nM.

[[record]]
compound = "[2H]C([2H])([2H])n1cc(-c2cc(S(C)(=O)=O)ccc2N2CCC3(CC2)CC3(F)F)c2cc[nH]c2c1=O [Compound 184]"
measuredquantity = "IC50"
resultnumber = 1.5


Noted for [2H]C([2H])([2H])n1cc(-c2cc(S(=O)(=O)CC)ccc2N2CCC3(CC2)CC3(F)F)c2cc[nH]c2c1=O [Compound 231] : its IC50 reads 0.51

---

targetOrTestSystem: UniProt Q15059
assayName: AlphaScreen binding of compounds on BRD3 (D1+D2)
conditionsUsed: read-out: IC50 against BRD3(1,2)
measuredQuantity: pIC50
Recall that pIC50 is obtained by taking minus log10 of the concentration measured in molar.

[[record]]
itemsmiles = "[2H]C([2H])([2H])n1cc(-c2cc(S(N)(=O)=O)ccc2N2CCC3(CC2)CC3(F)F)c2cc[nH]c2c1=O"
resultnumber = 8.41


Noted for [2H]C([2H])([2H])n1cc(-c2cc(S(=O)(=O)N(C)C)ccc2N2CCC3(CC2)CC3(F)F)c2cc[nH]c2c1=O : its pIC50 reads 8.13

---

targetOrTestSystem: BRD2(1,2) (Homo sapiens (Human), UniProt P25440)
Sequence (P25440 65-459): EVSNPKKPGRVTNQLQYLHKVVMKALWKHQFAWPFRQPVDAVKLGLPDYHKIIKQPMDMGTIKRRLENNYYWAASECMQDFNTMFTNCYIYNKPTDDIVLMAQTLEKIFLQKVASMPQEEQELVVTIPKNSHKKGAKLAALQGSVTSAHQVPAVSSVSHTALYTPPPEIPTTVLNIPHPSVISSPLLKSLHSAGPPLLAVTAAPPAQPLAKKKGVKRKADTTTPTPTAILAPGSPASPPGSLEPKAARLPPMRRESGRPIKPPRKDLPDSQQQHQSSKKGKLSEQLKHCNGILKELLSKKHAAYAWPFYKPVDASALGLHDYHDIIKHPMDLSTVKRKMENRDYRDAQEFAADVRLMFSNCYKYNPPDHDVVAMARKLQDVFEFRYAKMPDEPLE
assayName: AlphaScreen binding of compounds on BRD2 (D1+D2)
conditionsUsed: read-out: IC50 against BRD2(1,2)
measuredQuantity: log10 IC50 (log10 of the value in nM)
Hi team, quick reminder: these entries are log10 of IC50 (nM).

Record excerpt, results attached:
[[record]]
compound = "[2H]C([2H])([2H])n1cc(-c2cc(S(=O)(=O)NC)cnc2N2CCC3(CC2)CC3(F)F)c2cc[nH]c2c1=O [Compound 212]"
measuredquantity = "log10 IC50"
resultnumber = 0.23

[[record]]
compound = "[2H]C([2H])([2H])n1cc(-c2cc(S(=O)(=O)N3C[C@H](O)C[C@H]3C(=O)O)ccc2N2CCC3(CC2)CC3(F)F)c2cc[nH]c2c1=O [Compound 252]"
measuredquantity = "log10 IC50"
resultnumber = 2.20

[[record]]
compound = "CCS(=O)(=O)Nc1ccc(N2CCC3(CC2)CC3(F)F)c(-c2cn(C)c(=O)c3[nH]ccc23)c1 [Compound 193]"
measuredquantity = "log10 IC50"
resultnumber = 0.43

[[record]]
compound = "[2H]C([2H])([2H])n1cc(-c2cc(S(C)(=O)=O)ccc2N2CCC3(CC2)CC3(F)F)c2cc[nH]c2c1=O [Compound 184]"
measuredquantity = "log10 IC50"
resultnumber = 0.30

[[record]]
compound = "[2H]C([2H])([2H])n1cc(-c2cc(S(=O)(=O)CC)cnc2N2CCC3(CC2)CC3(F)F)c2cc[nH]c2c1=O [Compound 215]"
measuredquantity = "log10 IC50"
resultnumber = 0.46


Noted for [2H]C([2H])([2H])n1cc(-c2cc(S(C)(=O)=O)c(F)cc2N2CCC3(CC2)CC3(F)F)c2cc[nH]c2c1=O [Compound 219] : its log10 IC50 reads 0.26

---

targetOrTestSystem: BRD3(1,2) (Homo sapiens (Human), UniProt Q15059)
Sequence (Q15059 29-417): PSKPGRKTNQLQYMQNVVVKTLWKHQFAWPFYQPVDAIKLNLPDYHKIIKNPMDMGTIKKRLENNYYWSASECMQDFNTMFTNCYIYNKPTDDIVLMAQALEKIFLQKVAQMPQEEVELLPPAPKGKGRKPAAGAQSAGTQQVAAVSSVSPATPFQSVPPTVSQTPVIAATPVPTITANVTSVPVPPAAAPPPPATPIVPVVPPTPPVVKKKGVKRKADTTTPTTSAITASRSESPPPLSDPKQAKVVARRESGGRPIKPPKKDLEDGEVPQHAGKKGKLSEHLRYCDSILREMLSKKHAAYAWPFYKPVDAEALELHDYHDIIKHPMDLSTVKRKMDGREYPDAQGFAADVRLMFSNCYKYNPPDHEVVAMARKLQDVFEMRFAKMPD
assayName: AlphaScreen binding of compounds on BRD3 (D1+D2)
conditionsUsed: read-out: IC50 against BRD3(1,2)
Listed here are compounds together with their documented IC50.
State the answer as a number, implicitly in nM.

Record excerpt, results attached:
[[record]]
compound = "[2H]C([2H])([2H])n1cc(-c2cc(S(=O)(=O)CC)ccc2N2CCC3(CC2)CC3(F)F)c2cc[nH]c2c1=O [Compound 250]"
measuredquantity = "IC50"
unitabbreviation = "nM"
resultnumber = 4.1

[[record]]
compound = "[2H]C([2H])([2H])n1cc(-c2cc(S(C)(=O)=O)ccc2N2CCC3(CC2)CC3(F)F)c2cc[nH]c2c1=O [Compound 184]"
measuredquantity = "IC50"
unitabbreviation = "nM"
resultnumber = 4.7

[[record]]
compound = "[2H]C([2H])([2H])n1cc(-c2cc(S(C)(=O)=O)ccc2N2CCC3(CC2)CC3)c2cc[nH]c2c1=O [Compound 56]"
measuredquantity = "IC50"
unitabbreviation = "nM"
resultnumber = 4.3


Noted for [2H]C([2H])([2H])n1cc(-c2cc(S(=O)(=O)NC)ccc2N2CCC3(CC2)CC3)c2cc[nH]c2c1=O [Compound 202] : its IC50 reads 4.5

Noted for CCS(=O)(=O)Nc1ccc(N2CCC3(CC2)CC3(F)F)c(-c2cn(C)c(=O)c3[nH]ccc23)c1 [Compound 193] : its IC50 reads 5.8

Noted for [2H]C([2H])([2H])n1cc(-c2cc(S(=O)(=O)NC)cnc2N2CCC3(CC2)CC3(F)F)c2cc[nH]c2c1=O [Compound 212] : its IC50 reads 4.6

Noted for [2H]C([2H])([2H])n1cc(-c2cc(S(=O)(=O)N3CC[C@@H](O)C3)ccc2N2CCC3(CC2)CC3(F)F)c2cc[nH]c2c1=O [Compound 240] : its IC50 reads 4.3

---

Test system: MCF-7 cells
assayName: Inhibition of proliferation of MCF-7 cells (CCK-8)
Format: cell-based, human
conditionsUsed: Homo sapiens, MCF7, 144 h, 6 days, CCK-8
Method: • MCF-7 cell line (Cell Bank of Chinese Academy of Sciences, TCHu74) • FBS (Gibco, Cat. No. 10099-141) • 0.01M PBS (Biosharp, Cat. No. 162262) • RIPM1640 (Hyclone, Cat. No. 308090.01) • Penicillin-Streptomycin (Hyclone, Cat. No. SV30010) • Cell counting kit-8 (Signalway Antibody, Cat. No. CP002) • DMSO (Sigma, Cat. No. D5879) • Centrifuge Tube, 15 ml (Excell Bio, Cat. No. CS015-0001) • Cell Culture Dish, (Excell Bio, Cat. No. CS016-0128) • 96-well cell culture cluster (Corning, Cat. No. 3599) 3. […]
Listed here are molecules together with their documented IC50.
State the answer as a number, implicitly in nM.

[[record]]
itemsmiles = "[2H]C([2H])([2H])n1cc(-c2cc(NS(=O)(=O)CC)ccc2N2CCC3(CC2)CC3)c2cc[nH]c2c1=O"
measuredquantity = "IC50"
resultnumber = 54

[[record]]
itemsmiles = "Cn1cc(-c2cc(S(C)(=O)=O)ccc2N2CCC3(CC2)CC3(F)F)c2cc[nH]c2c1=O"
measuredquantity = "IC50"
resultnumber = 29

[[record]]
itemsmiles = "[2H]C([2H])([2H])n1cc(-c2cc(S(C)(=O)=O)ccc2N2CCC3(CC2)CC3(F)F)c2cc[nH]c2c1=O"
measuredquantity = "IC50"
resultnumber = 14


Noted for [2H]C([2H])([2H])n1cc(-c2cc(S(=O)(=O)CC)ccc2N2CCC3(CC3)C2)c2cc[nH]c2c1=O : its IC50 reads 100

---

System: CWR22RV1 cells
assayName: Compound in combination with androgen receptor inhibitor HC-1119, proliferation of CWR22RV1 cells (CCK-8)
Format: cell-based, human
conditionsUsed: Homo sapiens, CWR22Rv1, 144 h, compound alone, CWR22RV1 cells, 6 days; read-out: IC50 for inhibition on the activity of CWR22RV1
measuredQuantity: pIC50
Recall that pIC50 is obtained by taking minus log10 of the concentration measured in molar.

[[record]]
compound = "[2H]C([2H])([2H])n1cc(-c2cc(S(=O)(=O)CC)ccc2N2CCC3(CC2)CC3(F)F)c2cc[nH]c2c1=O [Compound 231]"
measuredquantity = "pIC50"
resultnumber = 8.74


Now for another entry.
Kindly note: CWR22RV1 cells, [2H]C([2H])([2H])n1cc(-c2cc(S(C)(=O)=O)ccc2N2CCC3(CC2)CC3(F)F)c2cc[nH]c2c1=O [Compound 184] , pIC50 value reported: 8.09

---

targetOrTestSystem: BRDT(D1) (Homo sapiens (Human), UniProt Q58F21)
assayName: HTRF binding of compounds on BRDT (D1)
conditionsUsed: read-out: IC50 against BRDT(D1)
// classify: if (IC50 < 20 nM) criterion met else criterion not met

[[record]]
itemsmiles = "[2H]C([2H])([2H])n1cc(-c2cc(S(=O)(=O)C(C)(C)C(=O)O)ccc2N2CCC3(CC2)CC3(F)F)c2cc[nH]c2c1=O"
targetortestsystem = "BRDT(D1) (Homo sapiens (Human), UniProt Q58F21)"
answerlabel = "criterion met"

[[record]]
itemsmiles = "[2H]C([2H])([2H])n1cc(-c2cc(S(=O)(=O)N3C[C@H](O)C[C@H]3C(=O)O)ccc2N2CCC3(CC2)CC3(F)F)c2cc[nH]c2c1=O"
targetortestsystem = "BRDT(D1) (Homo sapiens (Human), UniProt Q58F21)"
answerlabel = "criterion not met"

[[record]]
itemsmiles = "CCS(=O)(=O)Nc1ccc(N2CCC3(CC2)CC3(F)F)c(-c2cn(C)c(=O)c3[nH]ccc23)c1"
targetortestsystem = "BRDT(D1) (Homo sapiens (Human), UniProt Q58F21)"
answerlabel = "criterion not met"

[[record]]
itemsmiles = "[2H]C([2H])([2H])n1cc(-c2cc(S(=O)(=O)CC)cnc2N2CCC3(CC2)CC3(F)F)c2cc[nH]c2c1=O"
targetortestsystem = "BRDT(D1) (Homo sapiens (Human), UniProt Q58F21)"
answerlabel = "criterion met"


In the record for [2H]C([2H])([2H])n1cc(-c2cc(S(=O)(=O)N(C)C)ccc2N2CCC3(CC2)CC3(F)F)c2cc[nH]c2c1=O , is IC50 less than 20 nM? criterion met

In the record for [2H]C([2H])([2H])n1cc(-c2cc(S(=O)(=O)N3CC[C@@H](O)C3)cnc2N2CCC3(CC2)CC3)c2cc[nH]c2c1=O , is IC50 less than 20 nM? criterion met

In the record for [2H]C([2H])([2H])n1cc(-c2cc(NS(=O)(=O)CC)ccc2N2CCC3(CC2)CC3)c2cc[nH]c2c1=O , is IC50 less than 20 nM? criterion not met

In the record for [2H]C([2H])([2H])n1cc(-c2cc(S(C)(=O)=O)ccc2N2CCC3(CC2)CC3(F)F)c2cc[nH]c2c1=O , is IC50 less than 20 nM? criterion met

In the record for [2H]C([2H])([2H])n1cc(-c2cc(S(C)(=O)=O)ccc2N2CCC3(CC2)CC3)c2cc[nH]c2c1=O , is IC50 less than 20 nM? criterion not met
